Tested on: Leishmania donovani MHOM-ET-67/L82 (host free axenic amastigotes)
MEASUREMENT PROTOCOL: microbe, parasite or virus in culture
CONDITION INFO: read-out: IC50 Leishmania donovani; MHOM-ET-67/L82, host free axenic amastigotes; Supplementary Table 4 and main text
Please note: IC50 exactly at 200 nM is f. Only values below 200 nM get t.

Consider the worked cases shown below.
COMPOUND: CC(C)[C@H]1C(=O)O[C@H](C(C)C)C(=O)N(C)[C@@H](C(C)C)C(=O)O[C@H](C(C)C)C(=O)N(C)[C@@H](C(C)C)C(=O)O[C@H](C(C)C)C(=O)N1C
MEASUREMENT TARGET: Leishmania donovani MHOM-ET-67/L82 (host free axenic amastigotes)
CATEGORY LABEL: f
--
COMPOUND: CC(C)C[C@H]1C(=O)O[C@H](C(C)C)C(=O)N(C)[C@@H](CC(C)C)C(=O)O[C@H](C(C)C)C(=O)N(C)[C@@H](CC(C)C)C(=O)O[C@H](C(C)C)C(=O)N1C [hexa-bassianolide]
MEASUREMENT TARGET: Leishmania donovani MHOM-ET-67/L82 (host free axenic amastigotes)
CATEGORY LABEL: f
--
COMPOUND: CC(C)[C@H]1C(=O)O[C@H](C(C)C)C(=O)N(C)[C@@H](C(C)C)C(=O)O[C@H](C(C)C)C(=O)N(C)[C@@H](C(C)C)C(=O)O[C@H](C(C)C)C(=O)N(C)[C@@H](C(C)C)C(=O)O[C@H](C(C)C)C(=O)N1C
MEASUREMENT TARGET: Leishmania donovani MHOM-ET-67/L82 (host free axenic amastigotes)
CATEGORY LABEL: t
--
COMPOUND: CC(C)[C@H]1OC(=O)[C@H](Cc2ccccc2)N(C)C(=O)[C@@H](C(C)C)OC(=O)[C@H](Cc2ccccc2)N(C)C(=O)[C@@H](C(C)C)OC(=O)[C@H](Cc2ccccc2)N(C)C1=O
MEASUREMENT TARGET: Leishmania donovani MHOM-ET-67/L82 (host free axenic amastigotes)
CATEGORY LABEL: f

stdin: Consider CC(C)[C@H]1OC(=O)[C@H](Cc2ccccc2)N(C)C(=O)[C@@H](C(C)C)OC(=O)[C@H](Cc2ccccc2)N(C)C(=O)[C@@H](C(C)C)OC(=O)[C@H](Cc2ccccc2)N(C)C(=O)[C@@H](C(C)C)OC(=O)[C@H](Cc2ccccc2)N(C)C1=O . Does its IC50 lie strictly below 200 nM?
stdout: t

* * *

Test system: Trypanosoma brucei rhodesiense STIB 900 (trypomastigotes)
MEASUREMENT PROTOCOL: microbe, parasite or virus in culture
CONDITION INFO: Trypanosoma brucei, RHODESIENSE|STIB900, read-out: IC50 Trypanosoma b. rhodesiense
TEST READOUT: IC50 (nM)
Quick reminder: number only, in nM, skip the unit.

stdin: Provide IC50, tested on Trypanosoma brucei rhodesiense STIB 900 (trypomastigotes), for Nc1nc(N)nc(Nc2ccc([As]3SCC(CO)S3)cc2)n1 (stereo not shown) .
stdout: 7

* * *

Test system: Trypanosoma cruzi Tulahuen C4 (amastigotes)
MEASUREMENT PROTOCOL: microbe, parasite or virus in culture
CONDITION INFO: read-out: IC50 Trypanosoma cruzi; Tulahuen C4, amastigotes; Supplementary Table 4 and main text
TEST READOUT: pIC50
On this scale, pIC50 is minus log10 of a concentration expressed in M (mol/L).

Recorded results for 3 compounds are shown here.
COMPOUND: CC(C)[C@H]1OC(=O)[C@H](Cc2ccccc2)N(C)C(=O)[C@@H](C(C)C)OC(=O)[C@H](Cc2ccccc2)N(C)C(=O)[C@@H](C(C)C)OC(=O)[C@H](Cc2ccccc2)N(C)C(=O)[C@@H](C(C)C)OC(=O)[C@H](Cc2ccccc2)N(C)C1=O
TEST READOUT: pIC50
READOUT VALUE: 6.27

COMPOUND: CC(C)C[C@H]1C(=O)O[C@H](C(C)C)C(=O)N(C)[C@@H](CC(C)C)C(=O)O[C@H](C(C)C)C(=O)N(C)[C@@H](CC(C)C)C(=O)O[C@H](C(C)C)C(=O)N1C [hexa-bassianolide]
TEST READOUT: pIC50
READOUT VALUE: 5.45

COMPOUND: CC(C)[C@H]1C(=O)O[C@H](C(C)C)C(=O)N(C)[C@@H](C(C)C)C(=O)O[C@H](C(C)C)C(=O)N(C)[C@@H](C(C)C)C(=O)O[C@H](C(C)C)C(=O)N(C)[C@@H](C(C)C)C(=O)O[C@H](C(C)C)C(=O)N1C
TEST READOUT: pIC50
READOUT VALUE: 5.76

Next up:
stdin: Provide pIC50 value for the following compound: CC(C)[C@H]1C(=O)O[C@H](C(C)C)C(=O)N(C)[C@@H](C(C)C)C(=O)O[C@H](C(C)C)C(=O)N(C)[C@@H](C(C)C)C(=O)O[C@H](C(C)C)C(=O)N1C
stdout: 5.64
